- targetUnderTest: Cyclin-dependent kinase 1 (Homo sapiens) (UniProt P06493);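 note: mean percent inhibition of the CDK1/cyclin B complex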
- Sequence (P06493 whole entry, looked up): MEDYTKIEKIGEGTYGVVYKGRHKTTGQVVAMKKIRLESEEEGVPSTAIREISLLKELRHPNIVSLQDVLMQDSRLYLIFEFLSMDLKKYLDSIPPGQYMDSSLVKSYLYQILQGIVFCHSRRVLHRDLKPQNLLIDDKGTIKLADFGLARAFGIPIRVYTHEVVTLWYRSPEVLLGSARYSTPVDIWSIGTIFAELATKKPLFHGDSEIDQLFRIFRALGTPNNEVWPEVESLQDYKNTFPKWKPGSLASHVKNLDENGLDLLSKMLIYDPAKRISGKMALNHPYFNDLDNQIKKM
- conditionInfo: at 1 µM
attributeMeasured: inhibition (%)
The reply should be a number in %, with the unit left off.

[ask] Find the recorded inhibition belonging to "COc1ccc(-c2nn3ncccc3c2-c2ccnc(Nc3cccc(C(F)(F)F)c3)n2)cc1" and report it.
[reply] 1.61

[ask] Now consider "O=C1Nc2ccc(-c3cccnc3)cc2C1=Cc1cc(Br)c(O)c(Br)c1" and answer again.
[reply] 1.23

[ask] Now consider "C[C@@H](Oc1cc(-n2cnc3ccc(OCC4CCN(C)CC4)cc32)sc1C(N)=O)c1ccccc1C(F)(F)F" and answer again.
[reply] 3.02

[ask] Now consider "NS(=O)(=O)c1ccc(NC=C2C(=O)Nc3ccc4ncsc4c32)cc1" and answer again.
[reply] 69.5

[ask] Now consider "c1ccc(Cc2nc3ccc(Nc4ncnc5ccccc45)cc3[nH]2)cc1" and answer again.
[reply] 4.29

[ask] Now consider "CCOc1nccc2c1nc(-c1nonc1N)n2CC" and answer again.
[reply] 2.69

[ask] Now consider "COc1cc(/C=N/Nc2ncnc3c2cnn3C(C)C)ccc1O" and answer again.
[reply] 47.9

[ask] Now consider "CN(C)C(=O)O[C@H]1CN[C@H](C#Cc2cc3ncnc(Nc4ccc(OCc5cccc(F)c5)c(Cl)c4)c3s2)C1" and answer again.
[reply] -0.52

[ask] Now consider "O=C(Nc1ccc(Oc2ccc3[nH]c(NC(=O)c4ccco4)nc3c2)cc1)Nc1cc(C(F)(F)F)ccc1F" and answer again.
[reply] -3.69

[ask] Now consider "COc1cccc(-n2nc(C)c3c(N/N=C(\C)c4ccncc4)ncnc32)c1" and answer again.
[reply] 2.77

[ask] Now consider "Cc1cc(O)cc(C)c1/C=C/c1cncc(C(=O)N(C)C)c1" and answer again.
[reply] 5.98

[ask] Now consider "COc1cccc(-n2ncc3c(N/N=C/c4ccc(S(C)(=O)=O)cc4)ncnc32)c1" and answer again.
[reply] 64

[ask] Now consider "Cc1cc(Cl)cc2c1NC(=O)C2=NNc1ccc(S(N)(=O)=O)cc1" and answer again.
[reply] 1.91

[ask] Now consider "Nc1nccc(-c2c(-c3ccc(F)cc3)ncn2CCCN2CCOCC2)n1" and answer again.
[reply] 2.84

[ask] Now consider "N#Cc1c(NC(=O)c2ccccc2F)sc2c1CCCC2" and answer again.
[reply] 1.65

[ask] Now consider "Cc1ccc(NC(=O)CC2CC2)cc1-c1ccc(C(=O)NCC2CC2)cc1" and answer again.
[reply] 0.76

[ask] Now consider "CC(C)c1ccc2c(c1)NC(=O)/C2=N/Nc1ccc(S(N)(=O)=O)cc1" and answer again.
[reply] 6.84

[ask] Now consider "Nc1nccc(-c2c(-c3ccc(F)cc3)nn3cc(C(F)(F)F)ccc23)n1" and answer again.
[reply] 0.47

[ask] Now consider "COC(=O)c1ccc2c(c1)C(=Cc1cc(Br)c(O)c(Br)c1)C(=O)N2" and answer again.
[reply] 2.24

[ask] Now consider "c1ccc(Nc2ncc(-c3ccccc3)o2)cc1" and answer again.
[reply] 4.54

[ask] Now consider "COC(=O)c1cncc(/C=C/c2c(C)cc(O)cc2C)c1" and answer again.
[reply] 3.13

[ask] Now consider "[O-][S+]1CCN(Cc2ccc(-c3ccc4ncnc(Nc5ccc(OCc6ccccc6)c(Cl)c5)c4c3)o2)CC1" and answer again.
[reply] 1.4

[ask] Now consider "CN(C)C(=O)O[C@@H]1CN[C@@H](C#Cc2cc3ncnc(Nc4ccc(OCc5cccc(F)c5)c(Cl)c4)c3s2)C1" and answer again.
[reply] 0.19

[ask] Now consider "NS(=O)(=O)c1cccc(-c2cc3ccncc3cc2OCc2ccccc2)c1" and answer again.
[reply] 2.22

[ask] Now consider "Cc1ccc(C(=O)NC2CC2)cc1-c1ccc2[nH]ncc2c1" and answer again.
[reply] 2.1

[ask] Now consider "Nc1ccc(C#Cc2cncnc2Nc2ccc(OCc3cccc(F)c3)c(Cl)c2)cc1" and answer again.
[reply] 1.87

[ask] Now consider "NS(=O)(=O)c1ccc(N/N=C2\C(=O)Nc3ccc(Cl)cc32)cc1" and answer again.
[reply] 42.5

[ask] Now consider "COc1cccc(-n2ncc3c(N/N=C/c4ccc(C)cc4)ncnc32)c1" and answer again.
[reply] 8.17

[ask] Now consider "NC(=O)c1sc(-n2cnc3ccccc32)cc1OCc1ccccc1Br" and answer again.
[reply] 6.19

[ask] Now consider "CS(=O)(=O)Nc1cccc(-c2ccc3c(NC(=O)C4CC4)n[nH]c3c2)c1" and answer again.
[reply] 3.4

[ask] Now consider "Oc1cccc(-c2nc(-c3ccccc3)[nH]c2-c2ccncc2)c1" and answer again.
[reply] 2.64

[ask] Now consider "NS(=O)(=O)c1cccc(Nc2cc(-c3ccc(F)cc3)n[nH]2)c1" and answer again.
[reply] 9.28

[ask] Now consider "CCn1c(-c2nonc2N)nc2c(C#CC(C)(C)O)nc(OCCNC)cc21" and answer again.
[reply] 2.4

====

- targetUnderTest: Serine/threonine-protein kinase D1 (Homo sapiens) (UniProt Q15139);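 note: values given as mean inhibition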
- Sequence (Q15139 whole entry): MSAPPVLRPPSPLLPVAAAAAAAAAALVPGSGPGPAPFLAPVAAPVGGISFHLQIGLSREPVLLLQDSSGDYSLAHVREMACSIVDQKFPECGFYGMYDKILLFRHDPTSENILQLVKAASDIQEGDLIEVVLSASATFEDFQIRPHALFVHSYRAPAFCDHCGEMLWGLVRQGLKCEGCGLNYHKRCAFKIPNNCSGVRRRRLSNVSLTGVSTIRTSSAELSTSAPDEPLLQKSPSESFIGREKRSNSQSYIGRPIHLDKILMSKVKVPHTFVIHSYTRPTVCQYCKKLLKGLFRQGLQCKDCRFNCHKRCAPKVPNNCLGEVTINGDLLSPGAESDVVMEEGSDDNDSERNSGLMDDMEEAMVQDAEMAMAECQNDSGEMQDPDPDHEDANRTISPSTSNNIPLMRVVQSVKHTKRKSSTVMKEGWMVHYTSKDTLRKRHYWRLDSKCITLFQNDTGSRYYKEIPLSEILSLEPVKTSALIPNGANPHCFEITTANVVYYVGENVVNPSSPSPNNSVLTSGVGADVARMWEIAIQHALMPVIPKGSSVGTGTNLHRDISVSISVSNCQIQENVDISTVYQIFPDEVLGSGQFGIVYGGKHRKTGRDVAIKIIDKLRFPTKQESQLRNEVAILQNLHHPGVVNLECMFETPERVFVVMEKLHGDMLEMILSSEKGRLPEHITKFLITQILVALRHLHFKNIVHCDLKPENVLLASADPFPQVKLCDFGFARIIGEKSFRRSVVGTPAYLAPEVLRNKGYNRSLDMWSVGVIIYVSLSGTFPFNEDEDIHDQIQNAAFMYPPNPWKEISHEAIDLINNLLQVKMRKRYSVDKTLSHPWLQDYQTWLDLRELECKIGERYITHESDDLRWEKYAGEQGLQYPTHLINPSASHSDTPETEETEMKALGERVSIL
- conditionInfo: at 0.1 µM
attributeMeasured: inhibition (%)
The reply should be a number in %, with the unit left off.

[ask] Find the recorded inhibition belonging to "Cc1ccc(Nc2ccnc(Nc3cccc(C(N)=O)c3)n2)cc1O" and report it.
[reply] -0.94

[ask] Now consider "Nc1ccc(C#Cc2cncnc2Nc2ccc(OCc3cccc(F)c3)c(Cl)c2)cc1" and answer again.
[reply] 4.09

[ask] Now consider "Cc1ccc2c(c1)/C(=N/Nc1ccc(S(N)(=O)=O)cc1)C(=O)N2" and answer again.
[reply] 0.96

[ask] Now consider "CS(=O)(=O)CCNCc1nc(-c2ccc3ncnc(Nc4ccc(OCc5cccc(C(F)(F)F)c5)cc4)c3c2)cs1" and answer again.
[reply] 1.69

[ask] Now consider "N#Cc1cccc(Nc2nccc(-c3cnn4ncccc34)n2)c1" and answer again.
[reply] 7.68

[ask] Now consider "CN1CCN(C(=O)c2ccc(NC(=O)Nc3ccc(N(C)c4ccnc(Nc5ccc(CS(C)(=O)=O)cc5)n4)cc3)cc2)CC1" and answer again.
[reply] 2.19

[ask] Now consider "COc1cccc(-n2nc(C)c3c(N/N=C(\C)c4ccncc4)ncnc32)c1" and answer again.
[reply] 0.01

[ask] Now consider "Oc1cccc(-c2nc(-c3ccccc3)[nH]c2-c2ccncc2)c1" and answer again.
[reply] 3.05

[ask] Now consider "[O-][S+]1CCN(Cc2ccc(-c3ccc4ncnc(Nc5ccc(OCc6ccccc6)c(Cl)c5)c4c3)o2)CC1" and answer again.
[reply] 1.74

[ask] Now consider "CCS(=O)(=O)c1ccc(OC)c(Nc2nccc(N(C)c3ccc4c(C)n[nH]c4c3)n2)c1" and answer again.
[reply] 4.99

[ask] Now consider "NS(=O)(=O)c1ccc(-c2cc3ccncc3cc2OCc2ccccc2)cc1" and answer again.
[reply] 2.19

[ask] Now consider "CN(C)CCCn1c(-c2nonc2N)nc2cnccc21" and answer again.
[reply] 3.41

[ask] Now consider "CC(C)c1ccc(Nc2nccc(-c3cnn4ncccc34)n2)cc1" and answer again.
[reply] 2.12

[ask] Now consider "NC(=O)c1sc(-n2cnc3ccccc32)cc1OCc1ccccc1Br" and answer again.
[reply] 5.36

[ask] Now consider "NS(=O)(=O)c1ccc(Nc2cc(-c3cccc(O)c3)n[nH]2)cc1" and answer again.
[reply] 4.8

[ask] Now consider "Cc1cc(-c2ccccn2)cc(C)c1/C=C/c1cncc(-c2nn[nH]n2)c1" and answer again.
[reply] 6.68

[ask] Now consider "FC(F)(F)c1ccc(-c2nn3ncccc3c2-c2ccnc(Nc3ccc4c(c3)OCCO4)n2)cc1" and answer again.
[reply] 2.27

[ask] Now consider "COc1cccc(-n2ncc3c(N/N=C/c4ccc(S(C)(=O)=O)cc4)ncnc32)c1" and answer again.
[reply] -2.12

[ask] Now consider "COc1ccc(-c2nn3ncccc3c2-c2ccnc(Nc3cccc(C(F)(F)F)c3)n2)cc1" and answer again.
[reply] 3.56

[ask] Now consider "COc1cc(Nc2nccc(-c3cnn4ncccc34)n2)cc(OC)c1" and answer again.
[reply] 1.77

[ask] Now consider "CN(c1ccc(NC(=O)Nc2ccc(OC(F)(F)F)cc2)cc1)c1ccnc(Nc2cccc(S(N)(=O)=O)c2)n1" and answer again.
[reply] 2.95

====

- targetUnderTest: Dual specificity tyrosine-phosphorylation-regulated kinase 1B (Homo sapiens) (UniProt Q9Y463);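 note: values are mean percent inhibition of DYRK1B, from the GSK_PKIS set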
- Sequence (Q9Y463 whole entry, looked up): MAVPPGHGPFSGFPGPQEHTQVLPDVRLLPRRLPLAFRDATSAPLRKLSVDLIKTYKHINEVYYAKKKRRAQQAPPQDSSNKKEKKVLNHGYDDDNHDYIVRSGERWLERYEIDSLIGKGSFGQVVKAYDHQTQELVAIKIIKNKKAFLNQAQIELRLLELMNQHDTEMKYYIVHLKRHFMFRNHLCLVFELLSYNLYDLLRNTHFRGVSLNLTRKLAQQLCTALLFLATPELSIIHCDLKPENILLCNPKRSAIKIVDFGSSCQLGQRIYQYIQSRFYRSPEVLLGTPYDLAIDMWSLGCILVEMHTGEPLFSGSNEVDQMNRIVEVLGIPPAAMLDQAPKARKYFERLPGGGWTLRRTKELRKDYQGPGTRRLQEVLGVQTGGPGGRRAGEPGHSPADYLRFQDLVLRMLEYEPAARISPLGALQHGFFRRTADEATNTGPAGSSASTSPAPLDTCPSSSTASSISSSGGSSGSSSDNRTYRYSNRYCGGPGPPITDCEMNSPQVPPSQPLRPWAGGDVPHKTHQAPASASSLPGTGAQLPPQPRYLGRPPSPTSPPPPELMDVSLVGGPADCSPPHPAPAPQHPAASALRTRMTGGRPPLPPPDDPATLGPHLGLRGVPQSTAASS
- conditionInfo: at 1 µM
attributeMeasured: inhibition (%)
The reply should be a number in %, with the unit left off.

[ask] Find the recorded inhibition belonging to "OCc1ccc(-c2nc(-c3ccccn3)c(-c3ccc4c(c3)OCO4)[nH]2)cc1" and report it.
[reply] 0.97

[ask] Now consider "COc1cc2ncnc(Nc3ccc4c(cnn4Cc4ccccc4)c3)c2cc1OC" and answer again.
[reply] 0.09

[ask] Now consider "NS(=O)(=O)c1ccc(NC=C2C(=O)Nc3ccc4ncsc4c32)cc1" and answer again.
[reply] 57.6

[ask] Now consider "COc1cccc(-n2ncc3c(N/N=C/c4ccc(C)cc4)ncnc32)c1" and answer again.
[reply] 11.3

[ask] Now consider "Cc1nc(-c2ccccc2)n2nc(NCCCN3CCOCC3)ncc12" and answer again.
[reply] 7.26
